For each entry below, report its pest or weed control at 50 ppm value.
# Tested on: Septoria tritici
# RUN_DESCRIPTION: Test A: wheat leaf blotch, preventive spray on wheat seedlings
# Assay type: in vivo
# SETUP_CONDITIONS: Zymoseptoria tritici, 456 h, 50 ppm, 100 = 100% disease control, 0 = no control, read-out: Test A disease control rating
Express it in %; write the number only.

Value lookup for pest or weed control at 50 ppm; key = CCc1nn(C)c(Nc2c(F)cccc2[N+](=O)[O-])c1-c1ccc(F)cc1Cl
100

Report pest or weed control at 50 ppm for Cc1cc(F)c(Nc2c(-c3ccc(F)cc3Cl)c(C)nn2C)c([N+](=O)[O-])c1 please.
100

State the recorded pest or weed control at 50 ppm for this entry: Cc1nn(C)c(Nc2c(Cl)cc(F)cc2[N+](=O)[O-])c1-c1ccc(C#N)cc1Cl
100

What value of pest or weed control at 50 ppm has been recorded for this entry: COc1cc(F)c(Nc2c(-c3ccc(F)cc3F)c(C)nn2C)c([N+](=O)[O-])c1
100

Quick one: pest or weed control at 50 ppm of Cc1nn(C)c(Nc2ccc(F)cc2[N+](=O)[O-])c1-c1ccc(F)cc1Cl ?
100

Which pest or weed control at 50 ppm value is on record for Cc1nn(C)c(Nc2c(F)cccc2[N+](=O)[O-])c1-c1ccc(F)cc1Br ?
100

Given the entry Cc1nn(C)c(Nc2c(F)cccc2[N+](=O)[O-])c1-c1ccc(F)cc1Cl , report its measured pest or weed control at 50 ppm.
88

Look at this molecule and give its reported pest or weed control at 50 ppm. COc1cc(F)c(Nc2c(-c3c(F)cccc3Cl)c(C)nn2C)c([N+](=O)[O-])c1
100

Recorded pest or weed control at 50 ppm for Cc1cc(F)c(Nc2c(-c3ccc(C#N)cc3Cl)c(C)nn2C)c([N+](=O)[O-])c1 , please?
100

# lookup: pest or weed control at 50 ppm of Cc1nn(C)c(Nc2c(F)cc(Br)cc2[N+](=O)[O-])c1-c1ccc(F)cc1Cl
100
